- targetUnderTest: Amine oxidase [flavin-containing] A (Rattus norvegicus, UniProt P21396)
- Sequence (P21396 whole entry): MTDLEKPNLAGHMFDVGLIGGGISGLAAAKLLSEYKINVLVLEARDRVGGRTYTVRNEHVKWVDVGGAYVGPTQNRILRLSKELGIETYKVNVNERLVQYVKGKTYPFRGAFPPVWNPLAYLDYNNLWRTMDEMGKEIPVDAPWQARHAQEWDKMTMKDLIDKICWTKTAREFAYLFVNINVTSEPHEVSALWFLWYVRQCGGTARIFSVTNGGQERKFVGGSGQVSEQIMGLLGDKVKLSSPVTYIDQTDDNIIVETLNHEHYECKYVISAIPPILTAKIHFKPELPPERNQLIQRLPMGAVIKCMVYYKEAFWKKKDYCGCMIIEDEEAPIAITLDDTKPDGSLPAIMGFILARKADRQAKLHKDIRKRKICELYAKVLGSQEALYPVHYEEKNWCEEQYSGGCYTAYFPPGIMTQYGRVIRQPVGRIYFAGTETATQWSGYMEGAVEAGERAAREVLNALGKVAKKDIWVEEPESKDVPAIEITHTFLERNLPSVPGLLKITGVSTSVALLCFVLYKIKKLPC
pKi: −log10 of the molar value.
experimentalReadout: pKi

Hi there! I need pKi for each item below, if you can.
1. CSc1ccc(CC(C)NCc2ccc(OCc3ccccc3)cc2)cc1 (stereo not drawn)
2. COc1ccc(CNC(C)Cc2ccc(SC)cc2)cc1 (stereo not drawn)

## Output
1. < 4.00
2. < 4.00

## Input Query (molecule): CSc1ccc(CC(C)NCc2ccccc2)cc1 (stereo not drawn) ; field requested: pKi
## Output < 4.00

Data origin, for the record: ChEMBL document CHEMBL1152788
